Attribution: patent US20210179598A1

OBSERVABLE: melting point

Below are worked cases with known answers.
MOLECULE	melting point
C[C@@H](Oc1cc(-c2cncc(N3CCNCC3)c2)cnc1N)c1c(Cl)ccc(F)c1Cl	189.7 to 190.6 °C
CC(Oc1cc(-c2cnn(C3CCNCC3)c2)cnc1N)C1CCCCC1 (stereo not shown)	192.2 to 193.4 °C

*Q* I would be grateful if you could share the reported melting point for "C[C@@H](Oc1cc(-c2ccc(N3CCNCC3)nc2)cnc1N)c1c(Cl)ccc(F)c1Cl" .
*A* 197.8 to 198.5 °C

*Q* Would you kindly repeat that for CC(Oc1cc(-c2cccc(C3CCNCC3)c2)cnc1N)c1cc(F)ccc1Cl (stereo not shown) ?
*A* 192.1 to 193.4 °C

====

EXPERIMENTAL_TARGET: JAK2 (Homo sapiens)
Sequence (O60674 whole entry): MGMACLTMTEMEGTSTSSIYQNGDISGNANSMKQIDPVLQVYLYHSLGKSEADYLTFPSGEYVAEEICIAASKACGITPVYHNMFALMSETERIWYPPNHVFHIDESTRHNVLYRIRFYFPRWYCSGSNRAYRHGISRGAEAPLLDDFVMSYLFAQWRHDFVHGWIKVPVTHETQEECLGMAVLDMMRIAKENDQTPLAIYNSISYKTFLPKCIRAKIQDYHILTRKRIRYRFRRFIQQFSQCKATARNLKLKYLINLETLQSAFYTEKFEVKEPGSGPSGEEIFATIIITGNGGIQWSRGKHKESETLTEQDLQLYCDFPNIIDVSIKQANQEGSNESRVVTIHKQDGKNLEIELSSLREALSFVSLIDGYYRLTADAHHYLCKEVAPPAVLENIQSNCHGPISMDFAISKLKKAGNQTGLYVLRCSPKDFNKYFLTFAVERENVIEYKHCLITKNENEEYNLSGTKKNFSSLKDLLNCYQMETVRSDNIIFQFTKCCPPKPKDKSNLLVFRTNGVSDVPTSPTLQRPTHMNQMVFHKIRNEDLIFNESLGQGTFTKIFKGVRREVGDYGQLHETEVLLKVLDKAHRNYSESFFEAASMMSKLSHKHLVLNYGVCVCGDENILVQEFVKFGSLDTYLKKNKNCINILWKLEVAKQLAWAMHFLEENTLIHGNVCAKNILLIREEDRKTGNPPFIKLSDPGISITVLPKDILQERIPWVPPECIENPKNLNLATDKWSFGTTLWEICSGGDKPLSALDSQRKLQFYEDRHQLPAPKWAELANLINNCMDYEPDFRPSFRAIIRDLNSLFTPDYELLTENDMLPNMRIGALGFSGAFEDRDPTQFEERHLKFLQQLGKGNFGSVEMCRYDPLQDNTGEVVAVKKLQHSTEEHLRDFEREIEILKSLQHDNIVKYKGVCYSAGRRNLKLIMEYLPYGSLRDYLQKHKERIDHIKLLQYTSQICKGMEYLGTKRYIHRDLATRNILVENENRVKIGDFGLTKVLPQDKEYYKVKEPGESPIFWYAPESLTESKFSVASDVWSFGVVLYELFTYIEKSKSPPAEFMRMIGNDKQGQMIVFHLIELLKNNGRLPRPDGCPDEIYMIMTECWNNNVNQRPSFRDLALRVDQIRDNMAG
METHOD: JAK2 kinase activity test at molecular level (Z'-LYTE FRET)
Assay type: biochemical
REPORTED_CONDITIONS: Table 2; read-out: JAK2 IC50
pIC50: −log10 of the molar value.
OBSERVABLE: pIC50

MOLECULE	pIC50
Cc1cc(Nc2cnc(N)c(OC(C)c3cc(F)ccc3Cl)c2)nn1C (stereo not drawn) [MXY-191]	5.57
Cc1n[nH]c(C)c1-c1cnc(N)c(OC(C)c2cc(F)ccc2Cl)c1 (stereo not drawn) [XFL-107]	6.07
COCCn1cc(-c2cnc(N)c(OC(C)c3cc(F)ccc3Cl)c2)cn1 (stereo not drawn) [MXY-032-95]	7.96
CC(Oc1cc(-c2ccn[nH]2)cnc1N)c1cc(F)ccc1Cl (stereo not drawn) [XFL-141]	6.52
CC(Oc1cc(-c2cn(C)cn2)cnc1N)c1cc(F)ccc1Cl (stereo not drawn) [XFL-171]	5.73

P = CC(Oc1cc(Nc2ccccn2)cnc1N)c1cc(F)ccc1Cl (stereo not drawn) [MXY-175]
Q = CC(Oc1cc(-c2cccc(N3CCOCC3)c2)cnc1N)c1cc(F)ccc1Cl (stereo not drawn) [MXY-032-55]
*Q* Field: entry with larger pIC50 (options P / Q ). To answer, give the label that identifies your chosen option.
*A* Q

====

EXPERIMENTAL_TARGET: ALK (Homo sapiens)
Sequence (Q9UM73 19-1620, species assumed): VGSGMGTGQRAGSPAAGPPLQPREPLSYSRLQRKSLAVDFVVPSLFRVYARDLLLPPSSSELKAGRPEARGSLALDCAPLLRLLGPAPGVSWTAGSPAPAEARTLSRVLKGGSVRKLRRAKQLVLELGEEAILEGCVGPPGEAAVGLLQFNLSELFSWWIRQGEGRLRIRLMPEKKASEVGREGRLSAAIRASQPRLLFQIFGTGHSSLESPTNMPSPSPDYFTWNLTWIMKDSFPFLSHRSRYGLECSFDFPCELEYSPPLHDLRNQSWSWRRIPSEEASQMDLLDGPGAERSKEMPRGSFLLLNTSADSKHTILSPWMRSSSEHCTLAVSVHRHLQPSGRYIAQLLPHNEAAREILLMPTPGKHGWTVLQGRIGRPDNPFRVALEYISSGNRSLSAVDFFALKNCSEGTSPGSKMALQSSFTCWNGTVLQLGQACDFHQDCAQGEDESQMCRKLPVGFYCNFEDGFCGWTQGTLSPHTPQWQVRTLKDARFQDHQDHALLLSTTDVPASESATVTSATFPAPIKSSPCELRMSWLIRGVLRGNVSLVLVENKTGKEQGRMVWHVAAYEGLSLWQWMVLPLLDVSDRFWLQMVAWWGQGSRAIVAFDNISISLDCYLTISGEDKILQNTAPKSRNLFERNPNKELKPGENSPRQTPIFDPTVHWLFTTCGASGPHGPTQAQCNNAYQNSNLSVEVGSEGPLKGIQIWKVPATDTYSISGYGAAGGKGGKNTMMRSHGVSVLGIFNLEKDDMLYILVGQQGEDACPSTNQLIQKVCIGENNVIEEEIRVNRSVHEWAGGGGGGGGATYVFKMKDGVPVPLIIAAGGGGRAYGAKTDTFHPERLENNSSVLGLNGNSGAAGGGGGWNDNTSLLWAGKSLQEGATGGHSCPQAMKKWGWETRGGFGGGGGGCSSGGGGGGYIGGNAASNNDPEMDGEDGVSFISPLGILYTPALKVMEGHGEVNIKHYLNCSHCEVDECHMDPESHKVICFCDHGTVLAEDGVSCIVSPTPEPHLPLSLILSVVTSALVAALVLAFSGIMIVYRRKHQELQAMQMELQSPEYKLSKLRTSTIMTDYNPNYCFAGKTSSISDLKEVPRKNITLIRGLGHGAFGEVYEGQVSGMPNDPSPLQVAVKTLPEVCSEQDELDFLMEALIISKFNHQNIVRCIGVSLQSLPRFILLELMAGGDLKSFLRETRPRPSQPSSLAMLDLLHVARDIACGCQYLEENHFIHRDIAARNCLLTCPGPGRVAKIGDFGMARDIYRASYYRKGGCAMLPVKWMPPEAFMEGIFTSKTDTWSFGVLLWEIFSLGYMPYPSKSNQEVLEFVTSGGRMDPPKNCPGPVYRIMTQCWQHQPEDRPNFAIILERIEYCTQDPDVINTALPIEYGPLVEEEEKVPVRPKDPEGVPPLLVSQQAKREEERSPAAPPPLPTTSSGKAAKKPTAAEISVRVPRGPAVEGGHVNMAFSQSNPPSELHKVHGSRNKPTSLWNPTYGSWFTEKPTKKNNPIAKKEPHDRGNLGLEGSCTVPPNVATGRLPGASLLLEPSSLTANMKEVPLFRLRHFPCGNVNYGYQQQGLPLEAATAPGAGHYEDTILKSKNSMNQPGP
METHOD: ALK kinase IC50 test (HTRF)
Type: biochemical
REPORTED_CONDITIONS: Table 2
pIC50: −log10 of the molar value.
OBSERVABLE: pIC50

# count of solved cases: 5
COMPOUND	MEASUREMENT
CC(Oc1cc(-c2cccc(C3CCNCC3)c2)cnc1N)c1cc(F)ccc1Cl (stereo not drawn)	5.90
CC(Oc1cc(-c2cnn(C3CCNCC3)c2)cnc1N)c1c(Cl)cccc1Cl (stereo not drawn)	6.29
Cc1n[nH]cc1-c1cnc(N)c(OC(C)c2cc(F)ccc2Cl)c1 (stereo not drawn)	6.36
COc1ccc(F)c(Cl)c1C(C)Oc1cc(-c2cnn(C3CCNCC3)c2)cnc1N (stereo not drawn)	6.37
Cc1n[nH]c(C)c1-c1cnc(N)c(OC(C)c2cc(F)ccc2Cl)c1 (stereo not drawn)	5.47

P = CC(Oc1cc(-c2ccc(N3CCNCC3)cc2)cnc1N)c1cc(F)ccc1Cl (stereo not drawn)
Q = C[C@@H](Oc1cc(-c2ccc(N3CCNCC3)nc2)cnc1N)c1c(Cl)ccc(F)c1Cl
R = C[C@@H](Oc1cc(-c2cnn(C3CCOCC3)c2)cnc1N)c1c(Cl)ccc(F)c1Cl
*Q* List items by pIC50 in falling order. Reply format: the labels, ordered as requested.
*A* P, R, Q

====

System: SET 2 (JAK2 V617F) cells
METHOD: CCK-8 cell proliferation detection, SET2 cells
Format: cell-based
REPORTED_CONDITIONS: Homo sapiens, SET-2; Table 2; CCK-8, 72 hrs
OBSERVABLE: IC50 (µM)
Note: unit µM is implicit; provide only the numeric part.

Example entries begin here.
MOLECULE	EXPERIMENTAL_TARGET	MEASUREMENT
CC(Oc1cc(-c2ccc(N3CCNCC3)cc2)cnc1N)c1cc(F)ccc1Cl (centres unmarked) [WWQ-1093-85]	SET 2 (JAK2 V617F) cells	8.26
CCC(Oc1cc(-c2cnn(C3CCNCC3)c2)cnc1N)c1c(Cl)ccc(F)c1Cl (centres unmarked) [WWQ-1093-13]	SET 2 (JAK2 V617F) cells	7.86
C[C@@H](Nc1cc(-c2cnn(C3CCNCC3)c2)cnc1N)c1c(Cl)ccc(F)c1Cl [WWQ-1093-73]	SET 2 (JAK2 V617F) cells	2.2
CC(Oc1cc(-c2cn[nH]c2)cnc1N)c1cc(F)ccc1Cl (centres unmarked) [WWQ-1093-81]	SET 2 (JAK2 V617F) cells	5.55

# next molecule below
*Q* Param readout= IC50; system= SET 2 (JAK2 V617F) cells; entry= CC(Oc1cc(-c2ccc(C3CCNCC3)cc2)cnc1N)c1cc(F)ccc1Cl (centres unmarked) [WWQ-1093-87] ; returns value.
*A* 9.7

====

Measured melting point, listed per entry.

COMPOUND	MEASUREMENT
C[C@@H](Oc1cc(-c2cccnc2)cnc1N)c1c(Cl)ccc(F)c1Cl	158.8 to 159.8 °C
CC(Oc1cc(-c2cn[nH]c2)cnc1N)c1cc(F)ccc1Cl (stereo not drawn)	183.8 to 184.6 °C

*Q* So what's the measured melting point for this one? CC(Oc1cc(-c2ccccc2)cnc1N)c1c(Cl)ccc(F)c1Cl (stereo not drawn)
*A* 160.4 to 161.4 °C

====

EXPERIMENTAL_TARGET: JAK2 (Homo sapiens)
METHOD: JAK2 kinase activity test at molecular level (Z'-LYTE FRET)
Assay type: biochemical
REPORTED_CONDITIONS: Table 2; read-out: JAK2 IC50
OBSERVABLE: IC50 (nM)

Some solved entries appear below for comparison.
MOLECULE	IC50 / nM
CC(Oc1cc(-c2cncnc2)cnc1N)c1cc(F)ccc1Cl (centres unmarked)	566
CC(Oc1cc(-c2cccc(C3CCNCC3)c2)cnc1N)c1cc(F)ccc1Cl (centres unmarked)	35
CC(Oc1cc(-c2cn(C)c3ccccc23)cnc1N)c1cc(F)ccc1Cl (centres unmarked)	695
Cc1n[nH]cc1-c1cnc(N)c(OC(C)c2cc(F)ccc2Cl)c1 (centres unmarked)	40.8
CC(Oc1cc(-c2cnn(C3CCOC3)c2)cnc1N)c1cc(F)ccc1Cl (centres unmarked)	27

A = CC(Oc1cc(-c2ccc(N3CCNCC3)cc2)cnc1N)c1cc(F)ccc1Cl (centres unmarked)
B = CC(Oc1cc(-c2cnn3cccnc23)cnc1N)c1cc(F)ccc1Cl (centres unmarked)
*Q* When the recorded IC50 values are compared, which is smaller: that of A or that of B ? Give the label under which the chosen entry appears.
*A* A

====

EXPERIMENTAL_TARGET: JAK2 (Homo sapiens)
METHOD: JAK2 kinase activity test at molecular level (Z'-LYTE FRET)
Format: biochemical
REPORTED_CONDITIONS: Table 2; read-out: JAK2 IC50
Text: JAK2 can catalyze the transfer of a phosphate group of adenosine triphosphate (ATP) to a polypeptide substrate, and the polypeptide substrate is labeled with two fluorescent groups, coumarin and fluorescein. […] Therefore, the inhibition rates of different compounds can be calculated by measuring the ratio of enzyme-catalyzed substrate phosphorylation percentages. […]
pIC50: −log10 of the molar value.
OBSERVABLE: pIC50

P = CC(Oc1cc(-c2cn[nH]c2)cnc1N)c1cc(F)ccc1Cl (stereo not shown)
Q = CC(Oc1cc(-c2c[nH]c3ccccc23)cnc1N)c1cc(F)ccc1Cl (stereo not shown)
R = CC(Oc1cc(-c2cnn(C3CCNCC3)c2)cnc1N)C1CCCCC1 (stereo not shown)
S = CC(Oc1cc(-c2cnn3ccccc23)cnc1N)c1cc(F)ccc1Cl (stereo not shown)
T = COc1ccc(F)cc1C(C)Oc1cc(-c2cnn(C3CCNCC3)c2)cnc1N (stereo not shown)
*Q* Rank the listed compounds, smallest pIC50 first and largest last. Quick reminder: the answer is the labels in the order asked.
*A* R, Q, S, P, T

P = CC(Oc1cc(-c2nccs2)cnc1N)c1cc(F)ccc1Cl (stereo not shown)
Q = CC(Oc1cc(Nc2ccccc2)cnc1N)c1cc(F)ccc1Cl (stereo not shown)
R = COCCCn1cc(-c2cnc(N)c(OC(C)c3cc(F)ccc3Cl)c2)cn1 (stereo not shown)
S = CC(Oc1cc(-c2ccccc2)cnc1N)c1cc(F)ccc1Cl (stereo not shown)
T = CC(Oc1cc(-c2ccc(C3CCNCC3)cc2)cnc1N)c1cc(F)ccc1Cl (stereo not shown)
*Q* Sort ascending by pIC50. State the ranking by listing the labels in the requested order.
*A* Q, P, S, T, R

P = CC(Oc1cc(-n2cccn2)cnc1N)c1cc(F)ccc1Cl (stereo not shown)
Q = CCC(Oc1cc(-c2cnn(C3CCNCC3)c2)cnc1N)c1c(Cl)ccc(F)c1Cl (stereo not shown)
*Q* Parameter check: reported pIC50 is higher for which label, P or Q ? Response format: the label of the selected entry.
*A* Q
(Q: 7.00, P: 6.03)

A = CC(Oc1cc(-c2cnn(C3CCNCC3)c2)cnc1N)c1c(Cl)cccc1Cl (stereo not shown)
B = CC(Oc1cc(-c2cnn(C3COC3)c2)cnc1N)c1cc(F)ccc1Cl (stereo not shown)
C = CCOC(C)n1cc(-c2cnc(N)c(OC(C)c3cc(F)ccc3Cl)c2)cn1 (stereo not shown)
*Q* In this exercise, place the 3 compounds in ascending sequence of their recorded pIC50. Answer format: list of labels, ordered as asked.
*A* A, C, B
